B1: TRIM15 (parent)
chain: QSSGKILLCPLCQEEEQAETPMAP

Variants of: B1
test details: protein stability index of a GFP-peptide fusion (GPS, HEK-293T) (PSI 1-6); higher = more stable;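 further: lentivirally expressed fusions sorted by FACS into six bins by GFP to DsRed ratio, PSI derived from sequencing read proportions per bin multiplied by bin number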
assay context: c terminus: a fixed tail appended
Label Condition not met if protein stability index falls below 4; label Condition met in every other case.

Recorded results for 3 variants are shown here.
[
  {
    "sequence": "QSSGCILLCPLCQEEEQAETPMAP",
    "category": "Condition not met"
  },
  {
    "sequence": "QSSGKIPLCPLCQEEEQAETPMAP",
    "category": "Condition met"
  },
  {
    "sequence": "QSSGKILLCYLCQEEEQAETPMAP",
    "category": "Condition not met"
  }
]

Data request: Does protein stability index meet or surpass 4 for `QSSGKILLCPLCQEEEQANTPMAP` ?
Data returned: Condition not met

Data request: Does protein stability index meet or surpass 4 for `QSSGKIDLCPLCQEEEQAETPMAP` ?
Data returned: Condition met

Data request: Does protein stability index meet or surpass 4 for `QSSGKILLMPLCQEEEQAETPMAP` ?
Data returned: Condition met

Source: the supplement of paper PMC10567573
